Tested on: Pasteurella multocida CVCC399
assay-info: in vitro susceptibility, MIC by mini broth dilution
Format: cell-based
stated-conditions: strain CVCC399
readout: MIC values, Pasteurella multocida CVCC399 (ug/mi)
Field format: number, assumed ug/mi, no unit text.

Record excerpt, results attached:
{"columns": ["compound", "measured-value"],
 "data": [
  ["CCCNC[C@]1(O)[C@H](C)O[C@@H](O[C@H]2[C@H](C)[C@@H](O[C@@H]3O[C@H](C)C[C@H](N(C)C)[C@H]3O)[C@](C)(O)C[C@@H](C)NC[C@H](C)[C@@H](O)[C@](C)(O)[C@@H](CC)OC(=O)[C@@H]2C)C[C@@]1(C)OC", 1],
  ["CC[C@H]1OC(=O)[C@H](C)[C@@H](O[C@H]2C[C@@](C)(OC)[C@](O)(CNCc3ccc(OC)cc3)[C@H](C)O2)[C@H](C)[C@@H](O[C@@H]2O[C@H](C)C[C@H](N(C)C)[C@H]2O)[C@](C)(O)C[C@@H](C)NC[C@H](C)[C@@H](O)[C@]1(C)O", 2],
  ["C=CCN(CC=C)C[C@]1(O)[C@H](C)O[C@@H](O[C@H]2[C@H](C)[C@@H](O[C@@H]3O[C@H](C)C[C@H](N(C)C)[C@H]3O)[C@](C)(O)C[C@@H](C)N(CCC)C[C@H](C)[C@@H](O)[C@](C)(O)[C@@H](CC)OC(=O)[C@@H]2C)C[C@@]1(C)OC", 8]
]}

Proceed to the following item.
# input What value of measured MIC values, Pasteurella multocida CVCC399 is listed for CCC1OC(=O)C(C)C(OC2CC(C)(OC)C(O)(CNCNCc3ccc(C=O)cc3)C(C)O2)C(C)C(OC2OC(C)CC(N(C)C)C2O)C(C)(O)CC(C)NCC(C)C(O)C1(C)O (stereo not shown) ?
# output 0.5

Data origin, for the record: patent US9765105B2
